Listed below: EC50 values for each entry.
- Tested on: Intestinal-type alkaline phosphatase (Homo sapiens, UniProt P09923)
- Sequence (P09923 whole entry): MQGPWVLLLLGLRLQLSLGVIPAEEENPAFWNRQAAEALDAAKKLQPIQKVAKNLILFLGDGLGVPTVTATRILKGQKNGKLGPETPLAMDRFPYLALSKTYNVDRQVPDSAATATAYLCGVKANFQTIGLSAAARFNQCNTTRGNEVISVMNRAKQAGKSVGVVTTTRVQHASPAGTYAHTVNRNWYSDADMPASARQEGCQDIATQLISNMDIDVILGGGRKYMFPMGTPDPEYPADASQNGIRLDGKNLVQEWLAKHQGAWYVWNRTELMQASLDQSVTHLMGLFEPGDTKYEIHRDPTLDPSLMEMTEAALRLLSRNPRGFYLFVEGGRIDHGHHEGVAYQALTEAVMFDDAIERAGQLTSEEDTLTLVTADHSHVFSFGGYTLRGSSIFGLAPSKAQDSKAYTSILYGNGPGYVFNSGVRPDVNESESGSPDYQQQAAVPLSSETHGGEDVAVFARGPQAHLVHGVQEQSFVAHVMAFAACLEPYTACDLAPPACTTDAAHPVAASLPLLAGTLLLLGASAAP
- Protocol details: activation of human intestinal alkaline phosphatase – biochemical, luminescent, uHTS hits, set 2, dose response (AID 488817)
Field: numeric (µM). Do not append units.

COc1cccc(C=NNC(=O)c2[nH][nH]c(=O)c2C)c1O	9.07

For the next question, use this compound.
Find the measured EC50: item O=c1c2ccccc2nc(N=NCc2c(O)ccc3ccccc23)n1O [SMR000145705] , target or system Intestinal-type alkaline phosphatase (Homo sapiens, UniProt P09923).
31

---

Parameter EC50: see the listing below.
- Tested on: Intestinal-type alkaline phosphatase (Homo sapiens)
- Protocol details: activation of human intestinal alkaline phosphatase – biochemical, luminescent, uHTS hits, set 2, dose response (AID 488817)
Response body: numeric value in µM, unit text excluded.

Cc1c(C(=O)NN=Cc2ccc(O)cc2O)[nH][nH]c1=O	11.3
CCc1ccc(CN=Nc2ncnc3nc[nH]c23)cc1	12.5
O=Nc1[nH]c(=O)c(CC(=O)c2ccccc2)nc1NO	8.77
Cc1cc(Br)ccc1SCC(=O)OCC(=O)C(C#N)c1nc2ccccc2[nH]1 (stereo not drawn)	27.5
CCOC(=O)c1c(C)[nH]c(C(=O)N/N=C/C2C=C([N+](=O)[O-])C=CC2=O)c1C (stereo not drawn)	11.4
O=C(Nn1c(O)csc1=S)C(=O)Nn1c(O)csc1=S	12.4

Bench note: what EC50 did C=c1[nH]n(-c2nc3ccccc3[nH]2)c(=O)c1=CN(C)C show?
23.2

# input compound: Cn1c(C(C#N)C(=O)c2ccc(Br)s2)nc2ccccc21 (stereo not drawn) ; wanted: its EC50
60
